- methodNotes: NCI Yeast Anticancer Drug Screen. Data for the bub3 strain (AID 167)
- conditionLabel: S. cerevisiae bub3 mutant strain, at 50.0 µM (retest, dose inferred, filed as 5.0), stronger effect = higher value
This is part of a sample that, as a whole, favours compounds with a hit. Of some 79,000 tested, about 15% had one in any assay.
observable: growth inhibition (%)
Please give a number only; it is taken to be in %.

# input compound: COC(=O)CSC(=S)Nc1ccc(Cl)cc1 ; wanted: its growth inhibition 85

# input compound: Nc1c(C(=O)Nc2ccccc2)[n+]([O-])c2ccccc2[n+]1[O-] ; wanted: its growth inhibition 90

# input compound: O=C(CC(=O)c1ccccc1)CC(=O)c1ccccc1 ; wanted: its growth inhibition 95

# input compound: COc1ccc(OC)c(CC(Cl)(C#N)C#N)c1 ; wanted: its growth inhibition 99

# input compound: CC(C)=NOCCOC(=O)C(c1ccccc1)c1ccccc1 ; wanted: its growth inhibition 25

# input compound: C=CCOC(=O)N(C(=O)OCC=C)C(Cc1ccc(O)cc1)C(=O)NNc1ccccc1 (centres undefined) ; wanted: its growth inhibition 90

# input compound: CSC(SC)(C(=O)O)c1cc(C)no1 ; wanted: its growth inhibition 7

# input compound: Oc1cc2c(cc1C(c1ccc(Cl)cc1)N1CCOCC1)OCO2 (centres undefined) ; wanted: its growth inhibition 98

# input compound: NCCNC[Si](c1ccccc1)(c1ccccc1)c1ccccc1 ; wanted: its growth inhibition 94

----------
- methodNotes: NCI Yeast Anticancer Drug Screen. Data for the mec2-1 strain (AID 157)
- conditionLabel: S. cerevisiae mec2-1 strain, at 5.0 µM (retest, dose inferred, filed as 0.5), stronger effect = higher value
The panel holds about 79,000 compounds, 15% with a hit somewhere; the sample as a whole holds those more often.
observable: growth inhibition (%)
Please give a number only; it is taken to be in %.

# input compound: CNc1nc(N)nc(N(C)c2ccc(Br)cc2)c1N=O ; wanted: its growth inhibition 40

# input compound: COc1ccc(SC2=C(N(C)C)C(=O)c3ccccc3C2=O)cc1 ; wanted: its growth inhibition -19

# input compound: CN(C)CCCSc1c2ccccc2nc2cccc([N+](=O)[O-])c12 ; wanted: its growth inhibition 0

# input compound: CCCCCCCCCCCCCCCCCC1=NCCN1 ; wanted: its growth inhibition -4

----------
- methodNotes: NCI Yeast Anticancer Drug Screen. Data for the mlh1 rad18 strain (AID 175)
- conditionLabel: S. cerevisiae mlh1 rad18 strain growth inhibition; at 50.0 µM; stronger effect = higher value
- Description: Growth inhibition of yeast strains with defined genetic alterations is measured as a screen for potential anti-cancer activity. Selected strains with alterations in DNA damage repair or cell cycle control were exposed to compounds and growth inhibition was measured relative to vehicle treated controls. The strain used in this assay is mlh1 rad18
This is part of a sample that, as a whole, favours compounds with a hit. Of some 79,000 tested, about 15% had one in any assay. Calls of active or inactive are those of the source. Rule as the data show it: active = growth inhibition above about 70%; inactive = the rest.
Provide the recorded growth inhibition for the entries that follow.

# input compound: COC(=O)/C(C#N)=C1\NC(=O)CC(c2ccccc2)C1C#N (centres undefined) ; wanted: its growth inhibition -16.7% (inactive)

# input compound: O=C(CBr)c1cccc(OC(=O)c2ccccc2)c1 ; wanted: its growth inhibition 16.1% (inactive)

# input compound: COc1cc(/C=C/C(=O)c2ccc3ccccc3c2)cc(OC)c1OC ; wanted: its growth inhibition 22.6% (inactive)

# input compound: COc1ccc2nc3cccc([N+](=O)[O-])c3c(NCCN(C)C)c2c1 ; wanted: its growth inhibition 79.6% (active)

# input compound: CC1=C/C(=C(/c2ccc(O)c(C)c2)c2ccccc2C(=O)O)C=CC1=O ; wanted: its growth inhibition 99% (active)

# input compound: CN(C)c1ccccc1CC(c1c[nH]c2ccccc12)c1c[nH]c2ccccc12 ; wanted: its growth inhibition 82% (active)

# input compound: Cc1cccc(/C=N/Nc2ccccn2)n1 ; wanted: its growth inhibition 87.6% (active)

# input compound: COC(=O)c1ccc(NCc2c(O)ccc(O)c2Br)cc1Cl ; wanted: its growth inhibition 91.7% (active)

# input compound: N#CCCN(CCC#N)c1ccc(C(Sc2ccccc2)C(NC(=O)c2cc([N+](=O)[O-])ccc2Cl)C(=O)Sc2ccccc2)cc1 (centres undefined) ; wanted: its growth inhibition 73.3% (active)

# input compound: O=Cc1[nH]c(=S)[nH]c(=O)c1Cc1cccc2ccccc12 ; wanted: its growth inhibition 98.9% (active)

# input compound: CCOC(=O)c1c(C)c2c(n1C)CCc1sc(N)nc1-2 ; wanted: its growth inhibition 90.2% (active)

# input compound: O=S(=O)(C#Cc1ccccc1)c1ccccc1 ; wanted: its growth inhibition 99% (active)

# input compound: c1ccc(CN2CCC3(CC2)SSC2(CCN(Cc4ccccc4)CC2)S3)cc1 ; wanted: its growth inhibition 52% (inactive)

# input compound: CCOC(=O)Cc1csc2[n+]1C(=O)/C(=C/c1ccc(OC)c(OC)c1)S2 ; wanted: its growth inhibition 93% (active)

# input compound: Cn1sc2ccccc2c1=S ; wanted: its growth inhibition 99.7% (active)

# input compound: Oc1cc(Cc2ccccc2)c(Cc2ccccc2)cc1O ; wanted: its growth inhibition 88.2% (active)

# input compound: COc1ccc2c(c1)sc(/C=C/c1ccc(O)c3ncccc13)[n+]2C ; wanted: its growth inhibition 92.4% (active)

# input compound: CC(C)CCOc1ccc(/C=C\C(=O)O)cc1 ; wanted: its growth inhibition 75% (active)

# input compound: CCCCN(CCCC)C(=O)c1ccc(OC(=O)OCC)c(OC)c1 ; wanted: its growth inhibition 17% (inactive)
